Method Description: sensitizers of A549 cells to miR-34 induction, primary screen, imaging, A549 dox-inducible miR-34, nuclei and caspase counts (AID 1347080)
Experimental Context: A549 miR-34 inducible, Hoechst nuclei count, 48 h; stronger effect = lower value
Measurement Type: fold change
Numbers only.

Cc1nnc2n1-c1sc(CCC(=O)N3CCOCC3)cc1C(c1ccccc1Cl)=NC2; 1.01
COc1ccccc1N1CCNCC1; 0.98

Problem: Please look at this molecule and report its fold change: C=CCN1CC[C@]23c4c5ccc(O)c4O[C@H]2/C(=N/NC(=O)c2ccccc2)CC[C@@]3(O)[C@H]1C5
Solution: 0.994

----------
Method Description: sensitizers of A549 cells to miR-34 induction, primary screen, imaging, A549 dox-inducible miR-34, nuclei and caspase counts (AID 1347080)
Experimental Context: A549 miR-34 inducible, Hoechst nuclei count, 48 h; measured here: total cells with miR-34 induction; stronger effect = lower value
Measurement Type: cell count

FC(F)(F)c1cccc(N2CCNCC2)c1; 9590

Here are 7 molecules. What values of cell count were reported for them?
1. CCCC[N+]1(C)C2CC(OC(=O)[C@H](CO)c3ccccc3)CC1C1OC12 (stereo partly drawn)
2. c1cc2cc(N3CCNCC3)ccc2cn1
3. Clc1cc(I)cc(Cl)c1NC1=NCCN1
4. CC[N+]1(C)CCCC(OC(=O)C(O)(c2ccccc2)c2ccccc2)C1 (stereo not drawn)
5. CCCCC[C@@H](/C=C/C=C\CCCCCCCC(=O)O)OO
6. CN1[C@@H]2CC(=O)C[C@H]1[C@H](O)C2
7. c1ccc(C2(c3ccccc3)CC2C2=NCCN2)cc1 (stereo not drawn)

Solution:
1: 9870; 2: 5380; 3: 11200; 4: 8700; 5: 5710; 6: 8350; 7: 11300

----------
Method Description: liver-stage malaria parasite growth inhibition, primary screen, cell-based, HepG2, luciferase luminescence, HepG2 viability (AID 624349);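 also: 100% = mean of DMSO negative control wells on the same plate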
Experimental Context: P. berghei liver stage in HepG2, luciferase luminescence, concentration not given here; measured here: HepG2 viability without parasites
The class of a record is decided solely by its measured viability; consult bottom bin = under 70%, middle bin = from 70% up to 80%, top bin = 80% and over

C=C[C@H]1CN2CC[C@H]1C[C@@H]2[C@@H](O)c1ccnc2ccccc12; top bin
COc1cc2c(c(OC)c1OC)-c1ccc(O)c(=O)cc1[C@@H](N)CC2; top bin
CC1=C2[C@H]3OC(=O)[C@@H](C)[C@@H]3CC[C@@]2(C)C=CC1=O; middle bin
CC(Cc1ccccc1)NCCC(c1ccccc1)c1ccccc1 (centres undefined); middle bin
NCCC(O)C(=O)N[C@@H]1C[C@H](N)[C@@H](OC2O[C@H](CN)[C@@H](O)[C@H](O)[C@H]2N)[C@H](OC2O[C@H](CO)C(O)[C@H]2O)[C@H]1O (some centres undefined); top bin

Problem: Using the reported viability, which band applies to COP(=S)(OC)Oc1ccc(Sc2ccc(OP(=S)(OC)OC)cc2)cc1 ?
Solution: top bin

Problem: Assign a category based on measured viability for COc1ccc2[nH]cc(C3=CCNCC3)c2c1 and give only the class name.
Solution: middle bin

----------
Method Description: suppressors of polyQ aggregation in yeast, 75Q-TubU reporter (AID 1593)
Experimental Context: Yeast 75Q polyglutamine aggregation reporter
score vs 1: less than gives 1 (yes); not less than gives 0 (no).

O=C1Nc2ccc(Cl)cc2C(c2ccccc2Cl)=NC1O (stereo not given); 1 (yes)
ClC1C(Cl)C(Cl)C(Cl)C(Cl)C1Cl (stereo not given); 1 (yes)
CC[C@@H](CO)NC(=O)[C@@H]1C=C2c3cccc4[nH]cc(c34)C[C@H]2N(C)C1; 0 (no)

Consider the additional compound presented here.
Problem: Is 1 strictly greater than the compound's reported score? compound: NCCC(O)C(=O)N[C@@H]1C[C@H](N)[C@@H](O[C@H]2O[C@H](CN)[C@@H](O)[C@H](O)[C@H]2N)[C@H](OC2O[C@H](CO)[C@H](O)[C@H]2O)[C@H]1O (stereo not given in full)
Solution: 0 (no)

----------
Exercise: for every item that follows, state its recorded normalised cell number.
Method Description: differential killing of epithelial or mesenchymal cells, primary screen, imaging, PC-3E GFP, TEM4-18 mCherry, co-culture (AID 1345086);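 also: cells exposed to compound for 72 h before imaging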
Experimental Context: imaging cell counts, measured here: mesenchymal TEM4-18 mCherry cell survival, at 1 µM
One number for each entry.

CC1(C)CC(=O)C(Cl)C(=O)C1; 1.05
COc1ccc(C(=O)O)cc1OC; 0.94
OC1CCCCC1N1CCC(c2ccccc2)CC1 (centres undefined); 1.05
CC(C)=CC1C(C(=O)OCc2cccc(Oc3ccccc3)c2)C1(C)C (centres undefined); 1.19

Would you be so kind as to report normalised cell number for each listed record?
1. Oc1cc(Cl)ccc1Oc1ccc(Cl)cc1Cl
2. COc1cc2c(cc1OC)[C@@H]1C(=O)c3ccc(OC)c(CC=C(C)C)c3O[C@@H]1CO2
3. C[C@@H]1[C@H](O)[C@@H](C)/C=C/C=C/CC/C=C/C=C/C=C/C=C/[C@H](OC2O[C@H](C)[C@@H](O)[C@H](N)[C@@H]2O)C[C@@H]2O[C@](O)(C[C@@H](O)[C@H](O)CC[C@@H](O)C[C@@H](O)C[C@@H](O)CC(=O)O[C@H]1C)C[C@H](O)[C@H]2C(=O)O (some centres undefined)
4. O=C(O)CCC1NCC2CC1CN1CCCCC21 (centres undefined)
5. C[C@]12CC[C@H](O)C[C@H]1CCC1C2CC[C@]2(C)[C@@H](C3=CC(=O)OC3)[C@@H](O)C[C@]12O (some centres undefined)
6. Cc1cccc(C)c1NC1=NCCCS1
7. CC(C)c1c(CN(C)C(C)Cc2ccccc2)n(C)n(-c2ccccc2)c1=O (centres undefined)

Solution:
0.84
0.8
1.09
1.01
0.35
1.27
0.98

----------
Method Description: growth inhibition of DIPG glioma cells, dose response, cell-based, SU-DIPG-XIII, MIPE5.0, CellTiter-Glo, qHTS (AID 1347064);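 as to AC50: cells exposed to compound for 48 hours before the viability read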
Experimental Context: SU-DIPG-XIII viability, CellTiter-Glo ATP luminescence
Results filed as inconclusive are left out. Activity calls are given as the source filed them. The limit is not given here; nearly all actives have AC50 up to about 23 µM.
Please answer using one outcome listed in active, inactive

Example results:
CCOC(=O)c1c(/C(C#N)=C\N)c2ccc(Cl)c(Cl)c2n1C; inactive
C[C@]12CC[C@H]3[C@@H](CC[C@@]45O[C@@H]4C(O)=C(C#N)C[C@]35C)[C@@H]1CC[C@@H]2O; active
COC(=O)[C@@H](N)CCCN=C(N)N[N+](=O)[O-]; inactive

Problem: Dear all, I need the recorded test outcome for CNCC(O)c1ccc(O)cc1 (stereo unspecified) , thank you.
Solution: inactive

Problem: Just curious, what result did COc1cc([C@@H]2c3cc4c(cc3[C@@H](O)C3COC(=O)C32)OCO4)cc(OC)c1O (stereo partly specified) get here?
Solution: active

----------
Method Description: inhibitors of Cryptococcus chitosan production, flow cytometry, Cibacron Brilliant Red staining (AID 1347148);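 also: compound exposure lasted three days at 37 degrees C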
Experimental Context: Cryptococcus neoformans chitosan, stronger effect = lower value; at 10 µM unless noted
Active and inactive are the calls of the source. How the calls were made is not given here. Peptide text beside a SMILES is read from it. * marks the point of attachment. CH2Cl = ClC*
Measurement Type: fold fluorescence

Below: 5 compounds and their reported fold fluorescence.
COc1cccc2c1cc([N+](=O)[O-])c1c(C(=O)O)cc3c(c12)OCO3; 4.86 [at 146.5 µM] (inactive)
O=c1[nH]c2ccccc2n1C1CCN(CCCC(c2ccc(F)cc2)c2ccc(F)cc2)CC1; 5.15 [at 108.3 µM] (inactive)
CCN1C[C@]2(COC)C(O)C[C@H](OC)[C@]34C1[C@H]([C@H](OC)[C@H]23)[C@]1(OC(C)=O)[C@H]2[C@@H](OC(=O)c3ccccc3)[C@@](O)(C[C@H]24)[C@@H](OC)[C@@H]1O (stereo partly specified); 4.31 [at 77.4 µM] (inactive)
CC(=O)c1c(O)c(C)c(O)c(Cc2c(O)c3c(c(C(=O)/C=C/c4ccccc4)c2O)OC(C)(C)C=C3)c1O; 4.65 [at 96.8 µM] (inactive)
C[C@H](N)C(=O)N[C@@H](C)C(=O)N[C@@H](Cc1ccccc1)C(=O)CCl (H-Ala-Ala-Phe-CH2Cl); 4.89 [at 147.1 µM] (inactive)

Okay, now this compound:
Problem: Give the reported value of fold fluorescence for this record: C/C1=C/C(=O)O[C@H]2C[C@H](CC[C@@H](C)/C=C\CC1)O[C@](O)([C@H]1CSC(=O)N1)C2
Solution: 6.99 [at 126.4 µM] (inactive)

----------
Method Description: CellTiter-Glo luminescent readout of SW480 viability loss, NPC library primary (AID 1117343)
Experimental Context: CellTiter-Glo luminescence; at 20 µM (top of the series)
Calls of active or inactive are those of the source.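 How the source made its calls: active means compounds that lower viability of the colon cancer cells in the luminescence readout, with no numeric limit stated; inactive means the rest.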
The reply should be one of these categories: 1 for active, -1 for inactive

CC(Cc1ccccc1)N(C)Cc1ccco1 (stereo not drawn); -1
Oc1ccc([C@H]2CNCc3c2ccc(O)c3O)cc1O; 1

Problem: Given O=c1[nH]oc2c1CCNC2 , state the outcome it received in this test.
Solution: -1
